# targetUnderTest: Histone acetyltransferase KAT6A (Homo sapiens)
# Sequence (Q92794 whole entry): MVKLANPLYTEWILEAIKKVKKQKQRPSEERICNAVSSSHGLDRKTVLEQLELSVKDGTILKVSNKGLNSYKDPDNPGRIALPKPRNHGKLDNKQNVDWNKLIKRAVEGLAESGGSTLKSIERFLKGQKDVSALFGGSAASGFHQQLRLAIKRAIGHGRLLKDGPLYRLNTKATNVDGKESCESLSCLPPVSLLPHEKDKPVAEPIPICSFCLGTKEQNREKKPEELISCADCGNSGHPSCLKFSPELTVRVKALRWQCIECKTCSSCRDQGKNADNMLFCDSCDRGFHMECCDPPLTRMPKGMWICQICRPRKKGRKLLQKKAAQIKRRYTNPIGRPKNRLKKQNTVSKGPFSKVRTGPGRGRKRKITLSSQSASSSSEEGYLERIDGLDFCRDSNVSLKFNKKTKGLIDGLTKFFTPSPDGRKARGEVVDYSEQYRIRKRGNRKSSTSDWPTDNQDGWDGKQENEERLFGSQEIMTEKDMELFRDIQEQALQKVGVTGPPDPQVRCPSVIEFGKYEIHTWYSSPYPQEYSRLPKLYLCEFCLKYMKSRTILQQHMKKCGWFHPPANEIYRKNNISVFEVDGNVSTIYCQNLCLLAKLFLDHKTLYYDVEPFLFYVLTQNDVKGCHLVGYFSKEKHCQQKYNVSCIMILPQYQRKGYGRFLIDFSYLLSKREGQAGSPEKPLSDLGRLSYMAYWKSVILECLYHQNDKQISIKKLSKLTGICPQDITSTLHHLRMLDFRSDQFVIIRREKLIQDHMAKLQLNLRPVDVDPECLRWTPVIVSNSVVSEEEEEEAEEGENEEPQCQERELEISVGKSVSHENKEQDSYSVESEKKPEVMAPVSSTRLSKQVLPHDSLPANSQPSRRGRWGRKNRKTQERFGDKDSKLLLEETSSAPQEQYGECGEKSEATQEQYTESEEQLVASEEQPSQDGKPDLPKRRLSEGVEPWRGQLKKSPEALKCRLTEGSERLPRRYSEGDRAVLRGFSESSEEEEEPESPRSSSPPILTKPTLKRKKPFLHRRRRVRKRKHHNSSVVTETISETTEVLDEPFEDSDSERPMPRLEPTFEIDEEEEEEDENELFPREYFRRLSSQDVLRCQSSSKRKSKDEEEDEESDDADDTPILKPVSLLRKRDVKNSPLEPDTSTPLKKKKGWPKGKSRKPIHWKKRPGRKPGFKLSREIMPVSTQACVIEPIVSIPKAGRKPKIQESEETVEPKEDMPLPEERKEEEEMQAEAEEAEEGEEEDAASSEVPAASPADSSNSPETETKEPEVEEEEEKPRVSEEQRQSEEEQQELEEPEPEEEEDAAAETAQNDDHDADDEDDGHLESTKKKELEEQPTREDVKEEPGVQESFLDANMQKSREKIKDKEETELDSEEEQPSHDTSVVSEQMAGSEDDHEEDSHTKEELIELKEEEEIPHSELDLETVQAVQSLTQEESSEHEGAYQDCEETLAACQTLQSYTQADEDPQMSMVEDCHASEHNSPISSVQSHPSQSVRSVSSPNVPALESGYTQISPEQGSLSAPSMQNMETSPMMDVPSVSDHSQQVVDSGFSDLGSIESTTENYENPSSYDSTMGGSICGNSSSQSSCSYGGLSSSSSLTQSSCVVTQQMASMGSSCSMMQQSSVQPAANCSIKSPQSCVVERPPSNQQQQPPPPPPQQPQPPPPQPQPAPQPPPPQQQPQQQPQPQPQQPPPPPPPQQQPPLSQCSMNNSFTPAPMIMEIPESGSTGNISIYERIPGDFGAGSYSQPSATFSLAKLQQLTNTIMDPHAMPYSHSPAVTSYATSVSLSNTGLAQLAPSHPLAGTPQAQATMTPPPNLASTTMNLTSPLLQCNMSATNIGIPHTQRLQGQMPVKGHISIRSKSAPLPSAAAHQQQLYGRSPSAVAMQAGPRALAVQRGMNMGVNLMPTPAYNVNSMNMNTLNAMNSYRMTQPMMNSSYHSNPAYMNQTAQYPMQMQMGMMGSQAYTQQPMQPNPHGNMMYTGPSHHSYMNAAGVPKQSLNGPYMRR
# protocolText: Kat6A Assay 1: A. Compound preparation 1. Prepare 10 mM stock solutions in 100% DMSO from solid material 2. Serial dilute 10 mM, 1 mM or 0.1 mM compound stocks 3-fold in 100% DMSO for 11-point dose responseB. Reagent preparation 1. Prepare 1× assay buffer containing 10 mM Tris HCL pH 8.0, 2.5 mM NaCl, 0.5 mM EDTA, 0.005% BSG and 0.02% Tween-20 2. Dilute Histone peptide (CPC Scientific) and AcCoA (Sigma) together in assay buffer to 2×. 3. Dilute KAT enzyme in assay buffer to 2×.C. Enzyme reaction 1. Final reaction conditions for each KAT assay in a 20 ul assay reaction volume: ii. KAT6A 15 nM, 1 uM AcCoA, 2 uM H3 1-21 peptide, 45-minute reaction 2. Add 0.5 ul of diluted compound to the assay plate (384-well V-bottom polypropylene plates) or 0.5 ul of DMSO for control wells. 3. Add 10 ul of 2× Histone peptide/2×AcCoA mix to the assay plate. 4. Add 10 ul of 2× enzyme to the assay plate. 5. Stop the reaction after the indicated time with the addition of 2 ul of 5% formic acid 6. Each reaction was analyzed using self-assembled monolayer desorption/ionization time-of-flight mass spectrometry (Mrksich, Milan (2008) Mass Spectrometry of Self-Assembled Monolayers: A New Tool for Molecular Surface Science ACS Nano 2008 2 (1), 7-18; SAMDI Tech, Inc. (Chicago, Ill.)). 7. Area under the curve (AUC) for both substrate and product peaks was determined for KAT5 at M.W. 2561 [Substrate+H]+ and 2603 [Product+H]+ with a +/−1 Da tolerance, respectively 8. Area under the curve (AUC) for both substrate and product peaks was determined for KAT6a, KAT6B, KAT7 and KAT8 at M.W. 2723 [Substrate+H]+ and 2765 [Product+H]+ with a +/−1 Da tolerance, respectively. 9. Percent conversion to product was calculated by: AUCProduct/(AUCsubstrate+AUCProduct).D. Data analysis 1. IC50 values were determined by fitting the % conversion at each inhibitor concentration to the 4-parameter IC50 equation using Pfizer proprietary curve fitting software. 2. Ki values were determined by fitting the % conversion at each inhibitor concentration to the Morrison equation for tightbinding competitive inhibitors using Pfizer proprietary curve fitting software.
experimentalReadout: Ki (nM)
Number in nM, nothing else.

Endpoint output: Ki of `COc1cc(Cn2cccn2)cc2onc(NS(=O)(=O)c3ccccc3)c12` . Value?
10.3
